- measuredOn: human A2aR (Homo sapiens, UniProt P29274)
- Sequence (P29274 whole entry): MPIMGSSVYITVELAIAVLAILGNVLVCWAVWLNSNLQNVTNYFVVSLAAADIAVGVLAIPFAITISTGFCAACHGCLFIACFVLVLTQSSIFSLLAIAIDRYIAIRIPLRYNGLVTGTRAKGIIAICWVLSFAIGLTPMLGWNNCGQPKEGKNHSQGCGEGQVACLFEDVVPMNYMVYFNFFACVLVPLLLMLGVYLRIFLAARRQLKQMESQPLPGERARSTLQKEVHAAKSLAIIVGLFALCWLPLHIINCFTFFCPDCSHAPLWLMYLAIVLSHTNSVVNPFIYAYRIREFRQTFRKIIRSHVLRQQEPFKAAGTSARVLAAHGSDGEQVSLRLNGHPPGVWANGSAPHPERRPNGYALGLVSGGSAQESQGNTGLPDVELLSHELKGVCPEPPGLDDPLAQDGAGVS
- experimentDescription: Binding of humanized anti-A2aR antibodies in transfected Expi293F cell supernatant to human A2aR on HEK293 cells (FACS, MFI)
- setupConditions: supernatant with 1 μg/ml antibody; HEK293 overexpressing human A2aR; heavy chain (row) x light chain
Would you mind telling me the reported MFI, binding to human A2aR on cell surface (3F8-12E9 derived) of each entry?
Give bare numbers.

Examples from the recorded data:
>  <molecule>
Hu3F8-H3/Hu3F8-L1: humanized anti-A2aR IgG1 FES antibody; HCVR SEQ ID NO:66, LCVR SEQ ID NO:84 (antibody, V domains shown) VH: EVQLVQSGAEVKKPGASVKVSCKASGFTFTRYWMNWVRQAPGQGLEWIGRIDPSDSETHYNHKFWGRATLTVDTSTSTVYMELSSLRSEDTAVYYCLRSLYGKGDYWGQGTTVTVSS VL: DVVMTQSPLSLPVTLGQPASISCRSSQSIVHSNGNTYLEWFQQRPGQSPRRLIYKVSNRFSGVPDRFSGSGSGTDFTLKISRVEAEDVGVYYCYQGSHVPLTFGGGTKVEIK

>  <measuredValue>
64

$$$$
>  <molecule>
Hu3F8-H6/Hu3F8-L1: humanized anti-A2aR IgG1 FES antibody; HCVR SEQ ID NO:70, LCVR SEQ ID NO:84 (antibody, V domains shown) VH: EVQLVQSGAEVKKPGESLRISCKASGFTFTRYWMNWVRQMPGKGLEWIGRIDPSDSETHYNHKFWGHATLSVDKSSSTVYLQWSSLKASDTAMYYCLRSLYGKGDYWGQGTTVTVSS VL: DVVMTQSPLSLPVTLGQPASISCRSSQSIVHSNGNTYLEWFQQRPGQSPRRLIYKVSNRFSGVPDRFSGSGSGTDFTLKISRVEAEDVGVYYCYQGSHVPLTFGGGTKVEIK

>  <measuredValue>
158

$$$$
>  <molecule>
Hu3F8-H4/Hu3F8-L2: humanized anti-A2aR IgG1 FES antibody; HCVR SEQ ID NO:67, LCVR SEQ ID NO:85 (antibody, V domains shown) VH: EVQLVQSGAEVKKPGASVKVSCKASGFTFTRYWMNWVRQAPGQGLEWIGRIDPSDSETHYNHKFWGRATLTVDKSTSTVYMELSSLRSEDTAVYYCLRSLYGKGDYWGQGTTVTVSS VL: DVVMTQSPLSLPVTLGQPASISCRSSQSIVHSNGNTYLEWYQQRPGQSPRRLIYKVSNRFSGVPDRFSGSGSGTDFTLKISRVEAEDVGVYYCYQGSHVPLTFGGGTKVEIK

>  <measuredValue>
131

$$$$
>  <molecule>
Hu3F8-H4/Hu3F8-L1: humanized anti-A2aR IgG1 FES antibody; HCVR SEQ ID NO:67, LCVR SEQ ID NO:84 (antibody, V domains shown) VH: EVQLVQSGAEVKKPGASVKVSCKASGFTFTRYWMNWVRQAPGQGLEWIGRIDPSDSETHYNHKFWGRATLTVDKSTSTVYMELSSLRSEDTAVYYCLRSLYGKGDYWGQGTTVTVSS VL: DVVMTQSPLSLPVTLGQPASISCRSSQSIVHSNGNTYLEWFQQRPGQSPRRLIYKVSNRFSGVPDRFSGSGSGTDFTLKISRVEAEDVGVYYCYQGSHVPLTFGGGTKVEIK

>  <measuredValue>
110

$$$$

Shift focus to the following entry.
Lookup result for Hu3F8-H2/Hu3F8-L2: humanized anti-A2aR IgG1 FES antibody; HCVR SEQ ID NO:65, LCVR SEQ ID NO:85 (antibody, V domains shown) VH: EVQLVQSGAEVKKPGASVKVSCKASGFTFTRYWMNWVRQAPGQGLEWMGRIDPSDSETHYNHKFWGRVTMTVDTSTSTVYMELSSLRSEDTAVYYCLRSLYGKGDYWGQGTTVTVSS VL: DVVMTQSPLSLPVTLGQPASISCRSSQSIVHSNGNTYLEWYQQRPGQSPRRLIYKVSNRFSGVPDRFSGSGSGTDFTLKISRVEAEDVGVYYCYQGSHVPLTFGGGTKVEIK ; measured MFI, binding to human A2aR on cell surface (3F8-12E9 derived): 38

Data origin, for the record: patent US20250206828A1
